Would you mind telling me the reported Ki of each entry?
- tgt: serotonin reuptake sites (Rattus norvegicus)
- Construct: from tissue; host or cells: rat cortical membranes (from the title of the cited method only)
- Sequence (P31652 whole entry): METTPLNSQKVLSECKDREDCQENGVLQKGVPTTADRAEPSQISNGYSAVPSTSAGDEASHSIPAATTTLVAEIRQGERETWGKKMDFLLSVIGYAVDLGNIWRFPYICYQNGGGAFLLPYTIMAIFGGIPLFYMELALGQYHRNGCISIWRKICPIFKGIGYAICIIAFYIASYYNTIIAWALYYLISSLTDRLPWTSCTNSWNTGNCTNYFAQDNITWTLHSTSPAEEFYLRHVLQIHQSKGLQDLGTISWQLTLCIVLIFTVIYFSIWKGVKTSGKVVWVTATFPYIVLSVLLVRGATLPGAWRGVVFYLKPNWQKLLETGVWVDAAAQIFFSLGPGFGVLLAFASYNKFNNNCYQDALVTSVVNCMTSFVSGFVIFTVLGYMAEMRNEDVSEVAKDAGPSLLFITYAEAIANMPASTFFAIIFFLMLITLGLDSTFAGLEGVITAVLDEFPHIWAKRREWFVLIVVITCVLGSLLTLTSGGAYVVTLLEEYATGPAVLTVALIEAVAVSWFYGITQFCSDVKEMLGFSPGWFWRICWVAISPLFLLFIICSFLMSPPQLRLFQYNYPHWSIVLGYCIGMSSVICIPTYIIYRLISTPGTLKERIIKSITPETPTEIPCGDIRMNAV
- protocol text: In vitro affinity for serotonin reuptake sites ([3H]-paroxetine binding assay)
- experimental context: read-out: 5-HT reuptake pKi (converted)

Input Cc1nc2ccccn2c(=O)c1CCN1CC=C(c2c[nH]c3ccc(F)cc23)CC1 , output reported Ki.
0.316 nM

Input COc1nc(C)c(CCN2CC=C(c3c[nH]c4ccccc34)CC2)c(=O)n1C , output reported Ki.
0.794 nM

Input Cc1nc2n(c(=O)c1CCN1CC=C(c3c[nH]c4ccccc34)CC1)CCS2 , output reported Ki.
1.58 nM

Input Cc1nc2cc(-c3ccccc3)ccn2c(=O)c1CCN1CC=C(c2c[nH]c3ccccc23)CC1 , output reported Ki.
0.316 nM

Input CCc1ccn2c(=O)c(CCN3CC=C(c4c[nH]c5ccc(F)cc45)CC3)c(C)nc2c1 , output reported Ki.
7.94 nM

Input CSc1nc(C)c(CCN2CC=C(c3c[nH]c4ccc(F)cc34)CC2)c(=O)n1C , output reported Ki.
25.1 nM

Input Cc1nc2c(C)cccn2c(=O)c1CCN1CC=C(c2c[nH]c3ccccc23)CC1 , output reported Ki.
1.58 nM

Input Cc1ccn2c(=O)c(CCN3CC=C(c4c[nH]c5ccccc45)CC3)c(C)nc2c1 , output reported Ki.
3.98 nM
